The compounds listed here are annotated with their normalized growth.
Experiment: chemical genetic growth profiling, strain panel (AID 1159580);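 further: tested at 20 µM; growth read once vehicle control cultures reached saturation at 30 °C; 1 = growth at the plate median or of vehicle wells; lower values mean less growth of the strain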
Details: S. cerevisiae deletion strains, growth OD, locus YLR370C, strain arc18, stronger effect = lower value
The whole screen tested about 5,500 compounds, of which about 2,000 (36%) were called active. Not shown: some 18% with an inconclusive outcome. The list shows a part of the results.

{"COMPOUND": "O=C(O)CCCN1C(=O)c2cccc3cccc(c23)C1=O", "normalized growth": 1.02}
{"COMPOUND": "O=c1ccc2cc(O[C@@H]3O[C@H](CO)[C@@H](O)[C@H](O)[C@H]3O)c(O)cc2o1", "normalized growth": 0.989}
{"COMPOUND": "COc1cc2ccc(=O)oc2c(OC)c1OC", "normalized growth": 0.979}
{"COMPOUND": "Cc1ncc([N+](=O)[O-])n1CCO", "normalized growth": 0.972}
{"COMPOUND": "O=c1c(-c2ccc3c(c2)OCO3)coc2cc(O)ccc12", "normalized growth": 1}
{"COMPOUND": "CCCCC(=O)N(Cc1ccc(-c2ccccc2-c2nn[nH]n2)cc1)[C@H](C(=O)O)C(C)C", "normalized growth": 1}
{"COMPOUND": "COc1ccc(Cc2nccc3cc(OC)c(OC)cc23)cc1OC", "normalized growth": 0.992}
{"COMPOUND": "CC(=O)OCC(=O)[C@@]1(O)CCC2C3CCC4=CC(=O)CC[C@]4(C)[C@@]3(F)[C@@H](O)C[C@@]21C (stereo partly drawn)", "normalized growth": 1.02}
{"COMPOUND": "COc1cc2c(cc1-c1coc3c4c(c(OC)cc3c1=O)OC(C)(C)C=C4)OCO2", "normalized growth": 0.973}
{"COMPOUND": "O=c1ccc2ccc(O)c(O)c2o1", "normalized growth": 1.01}
{"COMPOUND": "CC(C)=CCc1c(O)cc2occ(-c3ccc4c(c3)OCO4)c(=O)c2c1O", "normalized growth": 0.992}
{"COMPOUND": "CC(C)(O)CC[C@@H](O)[C@](C)(O)C1CC[C@@]2(O)C3=CC(=O)C4C[C@@H](O)[C@@H](O)C[C@]4(C)C3CC[C@]12C (stereo partly drawn)", "normalized growth": 0.991}
{"COMPOUND": "C[C@]12C=CC(=O)C=C1CCC1C2CC[C@]2(C)C(=O)CCC12 (stereo partly drawn)", "normalized growth": 0.977}
{"COMPOUND": "CC1(C)C=Cc2c(cc3occ(-c4ccc5c(c4)OCO5)c(=O)c3c2O)O1", "normalized growth": 0.978}
{"COMPOUND": "Cn1c(=O)[nH]c(=O)c2[nH]cnc21", "normalized growth": 0.989}
{"COMPOUND": "C[C@]12C=CC(=O)C=C1CCC1C2C(=O)C[C@@]2(C)C1CC[C@]2(O)C(=O)CO (stereo partly drawn)", "normalized growth": 0.994}
{"COMPOUND": "CC(C)=CCC/C(C)=C/COc1ccc2ccc(=O)oc2c1", "normalized growth": 0.999}
{"COMPOUND": "COc1cc(O)c(C)c(O)c1", "normalized growth": 1.02}
{"COMPOUND": "O=c1[nH]c2ccccc2n1CCCN1CCC(n2c(=O)[nH]c3cc(Cl)ccc32)CC1", "normalized growth": 0.966}
{"COMPOUND": "COc1c2occc2cc2ccc(=O)oc12", "normalized growth": 0.914}
{"COMPOUND": "CC1(C)S[C@@H]2[C@H](NC(=O)COc3ccccc3)C(=O)N2[C@H]1C(=O)O", "normalized growth": 1}
{"COMPOUND": "Cn1c([N+](=O)[O-])cnc1COC(N)=O", "normalized growth": 1.02}
{"COMPOUND": "COc1ccc2[nH]cc(CCNC(C)=O)c2c1", "normalized growth": 0.974}
{"COMPOUND": "CCNc1nc(Cl)nc(NC(C)C)n1", "normalized growth": 0.984}
{"COMPOUND": "CC(C)=CCOc1c2occc2cc2ccc(=O)oc12", "normalized growth": 0.906}
{"COMPOUND": "OC[C@@H](O)C(O[C@@H]1O[C@H](CO)[C@H](O)[C@H](O)[C@H]1O)[C@H](O)[C@@H](O)CO (stereo partly drawn)", "normalized growth": 0.994}
{"COMPOUND": "Cc1cc(O)c2c(c1O)C(=O)c1c(O)cc(C)c(O)c1C2=O", "normalized growth": 0.987}
{"COMPOUND": "CCCc1nc(C(C)(C)O)c(C(=O)OCc2oc(=O)oc2C)n1Cc1ccc(-c2ccccc2-c2nn[nH]n2)cc1", "normalized growth": 0.947}
{"COMPOUND": "CC(=O)N[C@@H](CC(=O)O)C(=O)O", "normalized growth": 1.01}
{"COMPOUND": "CCOc1nc2cccc(C(=O)OC(C)OC(=O)OC3CCCCC3)c2n1Cc1ccc(-c2ccccc2-c2nn[nH]n2)cc1 (stereo not drawn)", "normalized growth": 1.02}
{"COMPOUND": "COC(=O)C[C@H]1C(C)(C)[C@@H](OC(C)=O)[C@@H]2CC3C4CC(=O)O[C@@H](c5ccoc5)[C@]4(C)CCC3[C@@]1(C)C2=O (stereo partly drawn)", "normalized growth": 1.02}
{"COMPOUND": "O=C1c2ccccc2C(=O)c2c(O)c(O)cc(O)c21", "normalized growth": 0.293}
{"COMPOUND": "CC(C)=CCOc1cc2oc(=O)ccc2cc1O", "normalized growth": 0.925}
{"COMPOUND": "COc1cc2ccc(=O)oc2c2ccoc12", "normalized growth": 0.982}
{"COMPOUND": "O=C(CCCN1CC=C(n2c(=O)[nH]c3ccccc32)CC1)c1ccc(F)cc1", "normalized growth": 0.972}
{"COMPOUND": "CC(C(=O)O)c1ccc(N2Cc3ccccc3C2=O)cc1 (stereo not drawn)", "normalized growth": 0.974}
{"COMPOUND": "CCOc1ccc(Cc2nccc3cc(OCC)c(OCC)cc23)cc1OCC", "normalized growth": 0.977}
{"COMPOUND": "C=C1CC2C(CCC3(C)C(=O)CCC23)C2(C)C=CC(=O)C=C12 (stereo not drawn)", "normalized growth": 0.937}
{"COMPOUND": "O=C1c2ccc(O)c(O)c2C(=O)c2c(O)ccc(O)c21", "normalized growth": 0.577}
{"COMPOUND": "O=c1[nH]c2ccccc2n1C1CCN(CCCC(c2ccc(F)cc2)c2ccc(F)cc2)CC1", "normalized growth": 0.962}
{"COMPOUND": "COc1cc(OC)c2c(=O)c(-c3ccc4c(c3)OCO4)coc2c1", "normalized growth": 0.99}
{"COMPOUND": "COc1cc(O)c(C(=O)O)c(O)c1", "normalized growth": 0.99}
{"COMPOUND": "CC(C)CCCC(C)[C@H]1CCC2C3CC[C@H]4CC(=O)CC[C@]4(C)C3CC[C@@]21C (stereo partly drawn)", "normalized growth": 0.98}
